Tested on: HCT-116 colon
Protocol details: NCI tumour cell line growth inhibition, 48 h
For each record, write down the corresponding TGI.
Quick note: give the figure in µM, leave out the unit.

Record request: TGI value, item `O=C1N[C@@H]2[C@@H](O)[C@@H](O)[C@H](O)C[C@H]2c2cc3c(c(O)c21)OCCO3`
1.22

Similarly, `Cc1cc2c(C(=O)NC[C@H](C)c3ccccc3)c(O)c(O)cc2c(O)c1-c1c(C)cc2c(C(=O)NC[C@H](C)c3ccccc3)c(O)c(O)cc2c1O` ?
9.59

Similarly, COc1ccc2c3c1OC1C(F)C=CC4(O)C(C2)NCCC314 (stereo not given) ?
3.01

Similarly, `CC(C)[N+]([O-])(CCCNc1c2ccccc2nc2cccc([N+](=O)[O-])c12)C(C)C` ?
3.94

---

System: LOX IMVI melanoma
Protocol details: NCI tumour cell line growth inhibition, 48 h
Measured attribute: TGI (µM)
Quick note: give the figure in µM, leave out the unit.

Record request: TGI value, item `NCCSSCc1ccccc1CSSCCN`
41.8

Similarly, `CCOC(=O)c1cc(C(=O)c2ccc(OC)cc2)n2ccc(/C=C/c3cc[n+](CC(=O)c4ccc(OC)cc4)cc3)cc12` ?
3.66

---

System: MOLT-4 leukemia
Protocol details: NCI tumour cell line growth inhibition, 48 h
For each record, write down the corresponding TGI.

Record request: TGI value, item `CC1=N/C(=C/c2ccc3c(c2)OCO3)C(=O)O1`
> 100 µM

Similarly, `Cc1cc(S(=O)(=O)Nc2n[nH]c(-c3ccc(Cl)cc3)n2)c(SSc2cc(Cl)c(C)cc2S(=O)(=O)Nc2n[nH]c(-c3ccc(Cl)cc3)n2)cc1Cl` ?
54.2 µM

Similarly, CC1Cc2c(Cl)ncnc2N(C)c2ccc(Cl)cc21 (configuration not stated) ?
> 100 µM

Similarly, `CCOC(=O)c1cnc(N(C)C)nc1SC(=N)N` ?
> 100 µM

Similarly, `CC(=O)Oc1ccccc1` ?
> 100 µM

Similarly, `Cc1cnc2n1S(=O)(=O)c1cc(C(=O)Nc3cccc4nsnc34)c(Cl)cc1S2` ?
> 100 µM

Similarly, C=C(CCCCC)CN1CCCC1C(C)=O (configuration not stated) ?
33 µM

Similarly, `c1ccc2c(CSCc3cccc4ccccc34)cccc2c1` ?
> 100 µM

Similarly, `O=C(CN(/C=C/C(=O)C(F)(F)F)c1ccc(Cl)cc1)c1ccc(Cl)cc1` ?
37.4 µM

Similarly, `c1csc(-c2nn3c(C45CC6CC(CC(C6)C4)C5)nnc3s2)c1` ?
> 100 µM

Similarly, `Cc1ccc(O)c(Cc2nc3ccccc3nc2-c2cccc(Cl)c2)c1` ?
51.4 µM

Similarly, `COc1cc(/C=C/c2cc(/C=C/c3ccc(O)c(OC)c3)n(C(=O)c3ccc(Cl)cc3)n2)ccc1O` ?
11.9 µM

Similarly, `COc1ccc2ncn(-c3cc(O[C@H](C)c4ccccc4C(F)(F)F)c(C(N)=O)s3)c2c1` ?
4.43 µM

Similarly, CC1(C)OC2C(CCP(=O)(O)O)OC(c3nc(C(N)=O)cs3)C2O1 (configuration not stated) ?
> 100 µM

Similarly, `Cc1c(-c2cnccn2)ssc1=S` ?
> 100 µM

Similarly, `CCOC(=O)c1nc2cc(C(F)(F)F)ccc2nc1Oc1ccc(C#N)cc1` ?
> 100 µM

Similarly, `O=c1c2cc(-c3ccccc3)cnc2sn1-c1ccc(Br)cc1` ?
> 100 µM

Similarly, `C=CN(C(=O)N1CCN(c2cc3c(cc2F)c(=O)c(C(=O)O)cn3C2CC2)CC1)c1nc(-c2ccc(OC)cc2)cs1` ?
> 100 µM

Similarly, `CC(=O)OC[C@H]1CN(OC(C)=O)C[C@@H](n2cc(C)c(=O)[nH]c2=O)O1` ?
> 100 µM

Similarly, `O=c1ccc2ccc(OP(=O)(O)O)cc2o1` ?
> 100 µM

Similarly, CC(C)(C)[Si](OC1CCOC1=O)(c1ccccc1)c1ccccc1 (configuration not stated) ?
59 µM

Similarly, N#CC12C(=O)N3C(=NC(c4ccco4)NC3c3ccco3)C1(C#N)C(c1ccco1)NC1=C2CCCC1 (configuration not stated) ?
> 100 µM
